These measurements were taken from the supplement of paper PMC12764529.

# protocol: folding stability dG unfold from trypsin proteolysis; higher = more stable
Response field class: string, computed from recorded folding stability dG unfold by ranges low = under -0.3 kcal/mol, middle = from -0.3 kcal/mol up to 1 kcal/mol, high = 1 kcal/mol and over

Exercise: Which band does AFTITGIEVTYDPATNTVTVTATVTGPDGSTATVTLTLTLPAPPPPVTTVTRTETRTLPDGTTVTVTETFTS [r1_125_TrROS_Hall] fall in?
Key: high

Exercise: Which band does SAGGSGSTTPETRTEPSPGGTTTEVRTDVHTLPDAETVEITVTRGGRTITLTASPAEAATLRVTPGASAGGS [r8_257_JUSTAS] fall in?
Key: low

Exercise: Which band does SAGGSATIKEGQVITRTVTDPSTGKEYEVEITIKKVTKYPASPEGILREEYEIEVKKSPKVSPLKLSAGGSA [r15_248_JUSTAS] fall in?
Key: middle

Exercise: Which band does SAGGSAGGSAMKVITLPENADINKVIEAVEAGSPILVKIVDPKSSKTTDLPLPSKEAVEKLSAGGSAGGSAG [r3_362_JUSTAS] fall in?
Key: low

Exercise: Which band does SAMRPGDPWKPVEERKIPIRNPNNGKEIEIEVYRFKDDGMYMVSIHFPDGKSIQFMVPPGDVEEIIEQISAG [r14_240_TrROS] fall in?
Key: high

Exercise: Which band does SAGGSAGGSMIDDIVEKLKIPPGTRIVFNDGEVKYFDNREDIKEWAKNGYPAEKLKNIVAFPESAGGSAGGS [r12_430_TrMRF] fall in?
Key: middle

Exercise: Which band does SAGGSAGGGMGPASFYIVTVDPNNPNVTKVESLSPSVDISLYRKKPFPIKTFSASNIEKLLKELSAGGSAGG [r6_864_JUSTAS] fall in?
Key: middle

Exercise: Which band does SAGGSAGNPKPVVLEVEVVLDIPPENPDVLRAQAEAVARALAKPGLRVEVLDYDPDKAAFTIRITGSAGGSA [r15_563_TrMRF] fall in?
Key: high

Exercise: Which band does SAGGSAGMMTDVEVEEYPGTGLVRITIRTPDAVVSGEGRFLSPELLEITISFPGAGKRTNELIPVRSAGGSA [r15_837_JUSTAS] fall in?
Key: high

====

# protocol: folding stability dG unfold from trypsin proteolysis; higher = more stable
property label: folding stability dG unfold (kcal/mol)
Numbers only; they are read as kcal/mol.

Exercise: Tell me its folding stability dG unfold given SAGIVIPINNPEQAEELAKEFAPEYGYEVEIERVPPGEPLEELPPNDIIVHDPDSGWFYKIKIKRPDEKSAG [r5_173_TrROS] as the entry.
Key: 0.38

Exercise: Tell me its folding stability dG unfold given SAGGSTVAKKTTEKDPNSDTTTVTITFPETGVKLTVTVPPGGETTVTLNNGSPPTTLTLPLSVLKLLSAGGS [r8_238_JUSTAS] as the entry.
Key: 0.192

Exercise: Tell me its folding stability dG unfold given SAKIVVKLPEKPKVAVIEFPPGMTKEEILKALEEVPGLSEEEREALKKKIEELEALAKNPELLKKLEEESAG [r14_732_TrROS_Hall] as the entry.
Key: -0.378

====

# protocol: folding stability dG unfold from chymotrypsin proteolysis; higher = more stable
property label: folding stability dG unfold (kcal/mol)
Numbers only; they are read as kcal/mol.

Exercise: Tell me its folding stability dG unfold given SAGGMGLEELAKLSPEEIARRLAAEAKAAAAAAGTPDAAVTLEVTLEDKPIVVEVGADGTIRRVELGSAGGS [r16_431_JUSTAS] as the entry.
Key: 1.16

Exercise: Tell me its folding stability dG unfold given SAMKKLRELLEKEFPDRPIKSVKNLGEKLAPDGTPYYVVELTFPDGSTITVTITSEEKPEILEAIEEEESAG [r14_143_JUSTAS] as the entry.
Key: 3.9

Exercise: Tell me its folding stability dG unfold given SAGGSAGGSAGRAEIPITFNGKKVEVEVEPDPDNGHPIITIKFGNKPVVINPDGQIRPFPSAGGSAGGSAGG [r11_732_TrROS] as the entry.
Key: -0.0926

Exercise: Tell me its folding stability dG unfold given SAGGMRLVFVTETPEEAEEIARELAELFPDFELEAEVREEEVLVEVPETGEVKRRPVYVLVIELRPKSAGGS [r16_828_TrMRF] as the entry.
Key: 4.42

Exercise: Tell me its folding stability dG unfold given SAGGSAGGWQPIAEHEFENPEDGKKIKIYYWPENGMMRIEFPNGRKHVIPPGDPFKSIEEMIKASAGGSAGG [r6_72_TrROS] as the entry.
Key: 1.81

Exercise: Tell me its folding stability dG unfold given SAGGSAGGSSMTFISTSTSPGNGYTYNIYSQPGKVVVTTTAPDGTVSVTTVEVSPDTSVTVTAASAGGSAGG [r6_380_JUSTAS] as the entry.
Key: 1.36

Exercise: Tell me its folding stability dG unfold given SAGGSAGGSAGVKIRMRGPNGSESKIPVPPDAIQDKFPPGDPIRIPIHRHNNNFHMDIEPVSAGGSAGGSAG [r3_86_TrROS] as the entry.
Key: 0.353

Exercise: Tell me its folding stability dG unfold given SAGGSAGGMTFTFPPGARVRIAIYNKNGELIEEREIDEPGAKITIEKDEETGEWRIVSIELLEPSAGGSAGG [r6_523_TrROS_Hall] as the entry.
Key: 3.76

Exercise: Tell me its folding stability dG unfold given SAGMKPGEPITLVLPDGVVIPIKINPNGGVEIDDIEPPPDGTYNMDARHPNNGKEITLNIKLPPGFQILSAG [r5_394_TrROS] as the entry.
Key: 0.239

Exercise: Tell me its folding stability dG unfold given SAGGSAGGSAGGMINIEGSSFEIVQPDGKPIGSESTGSAEELAKKLPSSYSVLPKGVPPSAGGSAGGSAGGS [r10_310_JUSTAS] as the entry.
Key: 2.72

Exercise: Tell me its folding stability dG unfold given SAGGSAGGSAPGKSITITFLFIWPDGWILVMKITFDPDGPGDIDIEWQWIPIPPPEPPPEDPSAGGSAGGSA [r18_409_TrROS] as the entry.
Key: 5.37

====

# protocol: folding stability dG unfold from chymotrypsin proteolysis; higher = more stable
Returns one of Fulfilled or Not fulfilled; Fulfilled when folding stability dG unfold is >= 8 kJ/mol.

Exercise: Could you please find out whether SALLVAPDGTVVKPETIKTTVETFTTYFLPPGKPVTRKGVKEYTVTVTTTTYTTPNPTLTVETTVTTVGSAG [r14_291_JUSTAS] has folding stability dG unfold that meets 8 kJ/mol or exceeds it?
Key: Not fulfilled

Exercise: Could you please find out whether SAGGSAGMKNVVKPVAPGTSMTLKVTKPDGTPRTLTFPPNYTATVKTLPEGGKDEIISLEPVPPELSAGGSA [r15_82_JUSTAS] has folding stability dG unfold that meets 8 kJ/mol or exceeds it?
Key: Not fulfilled

Exercise: Could you please find out whether SAGGSAGGSAGGIEDMAEKNPDWKIVEPIEIEIPYYNPDGKWYEVEYTIFVIVPPGDEISAGGSAGGSAGGS [r10_0_TrROS] has folding stability dG unfold that meets 8 kJ/mol or exceeds it?
Key: Fulfilled

Exercise: Could you please find out whether SAGGSAGGSGVLVRITATHPDGSTEEVLEIEVPNDENDPAKLKAIAEELAKKAGMKNIKIELLSAGGSAGGS [r12_569_JUSTAS] has folding stability dG unfold that meets 8 kJ/mol or exceeds it?
Key: Fulfilled

Exercise: Could you please find out whether SAGMKPGETIKNAKIRITYPNGEKKELKIDDVVKIVEIDEEKGVITIELKNGEKIEIKLPPGAKIEIEPSAG [r5_762_TrROS_Hall] has folding stability dG unfold that meets 8 kJ/mol or exceeds it?
Key: Not fulfilled

Exercise: Could you please find out whether SAGGSAGGSAGGETVVLVTYDKETKTLTVQTFELENGELKTTTKTVTLTDEQLESLPPASAGGSAGGSAGGS [r10_291_TrROS_Hall] has folding stability dG unfold that meets 8 kJ/mol or exceeds it?
Key: Fulfilled

Exercise: Could you please find out whether SAGGSAGGYRIRFKNGIEFKLPMTEGELKKMADNFPGFEVTEVEPVPPPPPPPEDLPPEQREQMSAGGSAGG [r6_881_TrROS] has folding stability dG unfold that meets 8 kJ/mol or exceeds it?
Key: Not fulfilled

Exercise: Could you please find out whether SAGGSMLFLRVRIEVRPPTAEDLAEGKEVKEVEILVEFDSVEELKEALEKLPPNAKVEVELVELEESAGGSA [r2_25_TrROS_Hall] has folding stability dG unfold that meets 8 kJ/mol or exceeds it?
Key: Fulfilled

Exercise: Could you please find out whether SAGGSAGGWVEQTYMVPPDMPVNMIKNKLEPWGVEIDDVEPFPNGNSIVTITIPPEFLKDPDEKSAGGSAGG [r6_470_TrROS] has folding stability dG unfold that meets 8 kJ/mol or exceeds it?
Key: Not fulfilled

Exercise: Could you please find out whether SAGGSAGGSAGGLEIVKEVIKNPLKNEPVEVLILIEKKEEPIEKTDLFEIPVKITIIPLSAGGSAGGSAGGS [r10_459_JUSTAS] has folding stability dG unfold that meets 8 kJ/mol or exceeds it?
Key: Not fulfilled
